- procedure.text: In vivo pharmacokinetic assessment via SC dosing
- test.conditions: mouse, C57/B6 mice, subcutaneous dosing, plasma, read-out: t½ (converted)
Bridge positions count the residues as written; N and C are the ends. Square brackets hold non-standard residues; d marks the D form. Peptide text beside a SMILES is read from it. pGlu = O=C1CC[C@@H](C(=O)O)N1; Nle = CCCC[C@H](N)C(=O)O
measurement.kind: half-life
Provide the measurement as a number trailed by its unit.

Lab note: measured half-life of CCCC[C@@H]1NC(=O)[C@@H]2CCCN2C(=O)CNC(=O)[C@H](CCCCN)NC(=O)[C@H](Cc2cnc[nH]2)NC(=O)[C@@H](NC(=O)[C@H](CC(C)C)NC(=O)[C@H](CCCNC(=N)N)NC(=O)[C@@H]2CCCN2C(=O)[C@H](CCCNC(=N)N)NC(=O)[C@@H]2CCC(=O)N2)CSSC[C@@H](C(=O)N[C@@H](Cc2ccccc2)C(=O)O)NC1=O [pE-R-P-R-L-C*-H-K-G-P-Nle-C*-F-OH, reference compound] ([pGlu]RPRLCHKGP[Nle]CF-OH; disulfide 6-12) was 31.2 min
